log10(IC50) listing for selected compounds.
Molecular target: GBA1 (Homo sapiens, UniProt P04062, R534H)
Construct: purchased Sanofi (Cerezyme)
Sequence (P04062 40-536 R534H): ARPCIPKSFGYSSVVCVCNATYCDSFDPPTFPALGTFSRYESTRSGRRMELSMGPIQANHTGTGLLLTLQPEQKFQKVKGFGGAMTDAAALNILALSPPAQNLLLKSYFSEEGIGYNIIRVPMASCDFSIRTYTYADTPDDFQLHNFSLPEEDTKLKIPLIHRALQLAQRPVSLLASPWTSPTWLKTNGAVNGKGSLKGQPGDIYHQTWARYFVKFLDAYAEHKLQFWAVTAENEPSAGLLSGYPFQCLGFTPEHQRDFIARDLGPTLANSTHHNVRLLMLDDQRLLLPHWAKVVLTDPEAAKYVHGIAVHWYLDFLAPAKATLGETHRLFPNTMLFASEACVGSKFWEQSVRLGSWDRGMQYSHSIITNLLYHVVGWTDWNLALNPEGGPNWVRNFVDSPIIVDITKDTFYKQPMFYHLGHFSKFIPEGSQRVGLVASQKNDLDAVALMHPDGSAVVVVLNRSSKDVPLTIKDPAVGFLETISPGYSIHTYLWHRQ
Test: GBA1 activity, recombinant human enzyme (Cerezyme), 4-MU-β-glucoside substrate;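 note: enzyme activity read out as fluorescence of the 4-MU released from the substrate, measured on a fluorimeter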
Type: biochemical
For clarity, the numbers are log10 values of IC50 expressed in nM.

// solved cases for log10(IC50) follow
1. OC[C@@H]1[C@@H](O)[C@H](O)[C@@H](O)CN1CCCCCOCc1ccc(-c2ccc(F)nc2)cc1 [Compound 15] | 3.48
2. OC[C@@H]1[C@@H](O)[C@H](O)[C@@H](O)CN1CCCCCOCc1ccc(-c2ccc(C(F)(F)F)cc2)cc1 [Compound 23] | 2.90
3. OC[C@@H]1[C@@H](O)[C@H](O)[C@@H](O)CN1CCCCCOCc1ccccc1-c1ccccc1 [Compound 14] | 3.10
4. COc1ccc(-c2ccc(COCCCCCN3C[C@H](O)[C@@H](O)[C@H](O)[C@H]3CO)cc2)cc1 [Compound 33] | 3.40
5. OC[C@@H]1[C@@H](O)[C@H](O)[C@@H](O)CN1CCCCCOCc1ccc(-c2ccccc2)cc1F [Compound 6] | 2.40
6. OC[C@@H]1[C@@H](O)[C@H](O)[C@@H](O)CN1CCCCCOCc1ccc(-c2ccnc(F)c2)cc1 [Compound 16] | 3.30

[in] Please give measured log10(IC50) of the following entry: OC[C@@H]1[C@@H](O)[C@H](O)[C@@H](O)CN1CCCCCOCc1ccc(-c2ccccc2F)cc1 [Compound 25]
[out] 2.78

[in] Entry OC[C@@H]1[C@@H](O)[C@H](O)[C@@H](O)CN1CCCCCOCc1ccc(-c2ccc3c(c2)OCCO3)cc1 [Compound 20] needs its log10(IC50) filled in; supply it.
[out] 3.48
